# measured.target: cAMP and cAMP-inhibited cGMP 3',5'-cyclic phosphodiesterase 10A (Rattus norvegicus, UniProt Q9QYJ6)
# Sequence (Q9QYJ6 whole entry): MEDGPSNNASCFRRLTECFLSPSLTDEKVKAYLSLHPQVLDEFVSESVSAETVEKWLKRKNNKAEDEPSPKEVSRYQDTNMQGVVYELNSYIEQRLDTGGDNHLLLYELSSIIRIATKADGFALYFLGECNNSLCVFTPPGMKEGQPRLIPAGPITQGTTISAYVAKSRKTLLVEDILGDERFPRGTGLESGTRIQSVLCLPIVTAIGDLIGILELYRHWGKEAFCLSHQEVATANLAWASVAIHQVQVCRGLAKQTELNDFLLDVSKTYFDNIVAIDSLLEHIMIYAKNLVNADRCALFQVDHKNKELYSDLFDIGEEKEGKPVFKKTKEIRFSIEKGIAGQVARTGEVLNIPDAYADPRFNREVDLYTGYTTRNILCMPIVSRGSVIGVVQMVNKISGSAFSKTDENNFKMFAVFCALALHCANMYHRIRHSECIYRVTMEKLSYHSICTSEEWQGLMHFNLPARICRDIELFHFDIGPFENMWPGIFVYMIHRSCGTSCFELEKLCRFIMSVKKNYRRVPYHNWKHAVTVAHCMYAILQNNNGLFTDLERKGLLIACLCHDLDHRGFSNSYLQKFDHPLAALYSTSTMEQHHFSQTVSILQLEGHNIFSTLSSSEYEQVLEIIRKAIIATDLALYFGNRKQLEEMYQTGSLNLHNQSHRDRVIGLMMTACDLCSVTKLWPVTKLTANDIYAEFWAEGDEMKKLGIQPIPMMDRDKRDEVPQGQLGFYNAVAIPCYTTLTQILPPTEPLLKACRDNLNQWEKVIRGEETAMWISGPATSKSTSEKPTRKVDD
readout: IC50 (nM)
Report as a plain number; the unit nM is understood.

CC(=O)N1CC=C(c2nccnc2OC2CN(c3nc4ccccc4s3)C2)CC1 63.1
c1ccc2nc(N3CC[C@H](Oc4nccnc4C4CCOCC4)C3)ccc2c1 447

Lab note: next compound to report on.
Would you kindly share the measured IC50 for "c1ccc(-c2nccc(OC3CN(c4ccc5ccccc5n4)C3)n2)nc1" ?
109

---

Protein target, amino acids: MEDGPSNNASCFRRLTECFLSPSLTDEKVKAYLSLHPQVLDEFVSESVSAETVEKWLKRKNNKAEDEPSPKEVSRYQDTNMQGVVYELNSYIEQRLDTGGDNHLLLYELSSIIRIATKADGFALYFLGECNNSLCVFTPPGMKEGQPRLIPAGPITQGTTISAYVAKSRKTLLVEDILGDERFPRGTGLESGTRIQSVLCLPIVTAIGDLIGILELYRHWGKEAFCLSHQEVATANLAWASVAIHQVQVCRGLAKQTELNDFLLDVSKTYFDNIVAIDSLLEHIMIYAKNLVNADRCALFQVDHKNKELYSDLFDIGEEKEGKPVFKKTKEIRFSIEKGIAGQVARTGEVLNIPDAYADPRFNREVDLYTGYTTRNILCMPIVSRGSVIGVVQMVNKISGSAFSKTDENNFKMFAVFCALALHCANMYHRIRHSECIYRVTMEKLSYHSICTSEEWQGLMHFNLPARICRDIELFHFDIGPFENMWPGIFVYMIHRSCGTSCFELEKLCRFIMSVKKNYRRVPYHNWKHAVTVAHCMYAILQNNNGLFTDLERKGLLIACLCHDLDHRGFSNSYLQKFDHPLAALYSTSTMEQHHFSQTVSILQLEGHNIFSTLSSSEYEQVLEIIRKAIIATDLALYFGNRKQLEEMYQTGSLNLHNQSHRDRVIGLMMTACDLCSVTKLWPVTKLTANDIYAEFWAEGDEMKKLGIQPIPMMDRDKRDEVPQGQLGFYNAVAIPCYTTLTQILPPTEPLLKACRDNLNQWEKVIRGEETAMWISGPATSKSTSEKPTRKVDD
readout: IC50 (nM)
Report as a plain number; the unit nM is understood.

Previously resolved entries follow.
compound	IC50 / nM
c1ccc2nc(N3CCC(Oc4nccnc4N4CCCCC4)CC3)ccc2c1	403
OCC1CCCN(c2nccnc2OC2CN(c3ccc4ccccc4n3)C2)C1 (stereo not drawn)	40.6

Lab note: next compound to report on.
Would you kindly share the measured IC50 for CC(=O)N1CCCC(c2cccnc2OC2CN(C(=O)c3ccccn3)C2)C1 (stereo not drawn) ?
41

Numbers sourced from ChEMBL document CHEMBL3639166.
